test: M. tuberculosis growth inhibition, HTS (AID 449762);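 further: bacterial growth assessed after seven days of incubation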; conditions: M. tuberculosis H37Rv growth inhibition, 7H9 media; at 25 µM; stronger effect = higher value
Hit rate of the full screen: of about 330,000 compounds, about 1,900 (0.58%) were called active. About 4% were inconclusive and are not listed. Only a sample is shown. Measured potencies and affinities stand elsewhere.
Field: inhibition. Provide a value for each of the molecules that follow.
One number for each entry, in %.

Recorded results for 3 molecules are shown here.
>>> observed("O=C(O)c1ccc(Nc2ncc([N+](=O)[O-])cc2[N+](=O)[O-])cc1")
3.64
>>> observed("C=CCNC(=S)NNC(=O)c1cccc2ccccc12")
-8.25
>>> observed("Cc1cccc(NC(=O)CSc2cc(C)c(C#N)c3nc4ccccc4n23)c1")
-1.23

Now, please, on to the next molecule.
*Q* If you can, please state the reported inhibition value of Cc1ccc(-c2noc(C3CCCN(C(=O)c4ccc(Cl)cc4)C3)n2)o1 (centres undefined) .
*A* 0.38

----------
assay: M. tuberculosis growth inhibition, HTS (AID 449762);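 further: bacterial growth assessed after seven days of incubation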; settings: M. tuberculosis H37Rv growth inhibition, 7H9 media; at 25 µM; stronger effect = higher value
Out of some 330,000 compounds screened, about 1,900 (0.58%) were called active. Roughly 4% stayed inconclusive and do not appear here. A selection follows. Measured potencies and affinities stand elsewhere.
observable: inhibition (%)
Numbers only, in %.

>>> observed("Cc1ccc(CNC(=O)c2ccc(N3CCC4(CC3)CC(c3ccccc3)=NO4)c(NC(=O)c3ccc(Cl)c([N+](=O)[O-])c3)c2)cc1")
-10.7

// batch mode: one inhibition value per listed entry
1. CCn1c(=O)cc(SCC(=O)Nc2ccc(OC)c(OC)c2)c2ccccc21
2. Cc1ccc(-c2nnc(SCC(=O)N/N=C/c3c(C)nn(-c4ccccc4)c3C)n2-c2ccc(C)cc2)cc1
3. CCOc1cc(CNCCCN2CCOCC2)ccc1OCC(=O)Nc1cccc2ccccc12

*A*
-7.13
5.96
6.81

// batch mode: one inhibition value per listed entry
1. COC(=O)Cc1ccc(NC(=S)N2CCC(Cc3ccccc3)CC2)cc1
2. CCCCCc1ccc(-c2cn(CC3CCCCC3)nn2)cc1
3. Cc1cccc(OC(=O)c2cncc(Br)c2)c1
4. Cc1ccc(S(=O)(=O)NC(Cc2ccc(Cl)cc2)C(=O)O)cc1 (stereo unspecified)
5. Cn1cc(C(=O)N2CCCCC2)c2ccccc21

*A*
1: 6.07; 2: 5.3; 3: 23.5; 4: 4.83; 5: 5.24

// batch mode: one inhibition value per listed entry
1. CCN1CC(CN(C)Cc2nc(Cc3ccccc3)no2)CC1=O (stereo unspecified)
2. COC(=O)c1c(NC(=S)Nc2ccc(C(=O)N3CCOCC3)cc2)sc2c1CCC2
3. CCNc1nc(NC(C)C)nc(NS(=O)(=O)c2ccc(N)cc2)n1
4. COc1cc(CNCCCN2CCOCC2)ccc1OCC(=O)Nc1cccc(C(F)(F)F)c1

*A*
1. 3.14
2. -7.13
3. -9.39
4. 0.14

----------
Field: inhibition. Provide a value for each of the compounds that follow.
test: M. tuberculosis growth inhibition, HTS (AID 449762);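 further: bacterial growth assessed after seven days of incubation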; conditions: M. tuberculosis H37Rv growth inhibition, 7H9 media; at 25 µM; stronger effect = higher value
The whole screen tested about 330,000 compounds, of which about 1,900 (0.58%) were called active. Roughly 4% stayed inconclusive and do not appear here. A selection follows. Measured potencies and affinities stand elsewhere.
Numbers only, in %.

// batch mode: one inhibition value per listed entry
1. O=C(c1ccc(Oc2ccc([N+](=O)[O-])cc2)cc1)N1CCCCCC1
2. COc1cccc2sc(N(CCN(C)C)C(=O)/C=C/c3cccs3)nc12
3. COc1ccc(NC(=S)NC2CCCCC2)c(OC)c1

*A*
1: 20.3; 2: 8.94; 3: 4.99

// batch mode: one inhibition value per listed entry
1. COc1ccc(-c2oc(NC(=O)c3ccc(C)cc3)c(C#N)c2-c2ccc(OC)cc2)cc1
2. COc1ccc(Cc2nc3ccc(C(=O)N(C)C(C)c4nccs4)cc3o2)cc1 (configuration not stated)
3. COc1ccc(/C=C2\N=C(C)N(c3ccc4ccccc4c3)C2=O)cc1OC
4. O=C(CS(=O)(=O)Cc1ccccc1)Nc1ccc(Br)cc1F
5. N#Cc1cc2c(nc1SCc1cccnc1)CCCCC2

*A*
1. 5.32
2. 1.57
3. 4.18
4. -10.1
5. 7.53

// batch mode: one inhibition value per listed entry
1. CC(C)c1nnc(NC(=O)CCC(=O)N2CCN(c3cccc(Cl)c3)CC2)s1
2. COc1ccc(CNC(=O)c2sc3nc4c(c(C(F)(F)F)c3c2N)CCC4)cc1OC
3. CCC(Sc1nc(C)cc(=O)[nH]1)C(=O)Nc1ccc(Cl)cn1 (configuration not stated)
4. CCOc1ccc(S(=O)(=O)N2CCN(C(=O)CN3C(=O)NC4(CCCC4)C3=O)CC2)cc1
5. CCOc1ccc(S(=O)(=O)N(C)c2ccc(OCC(=O)NCc3ccc(C(=O)OC)cc3)cc2)cc1

*A*
1. 25.5
2. 38.5
3. -1.49
4. -3.03
5. -3.45

// batch mode: one inhibition value per listed entry
1. CSCC(=O)N1CCCC(CNC(=O)c2ccc(-c3ccccc3)cc2)C1 (configuration not stated)
2. COc1ccc(-c2nc3ccc(C)cn3c2NCc2ccccc2)cc1SC1CCCCC1
3. CNC(C)C#Cc1ccc2c(=O)c3ccccc3oc2c1 (configuration not stated)

*A*
[3.04, 5.05, 30]
